# System: M. tuberculosis H37Rv growth inhibition, 7H9 media
# EXPERIMENT DESCRIPTION: M. tuberculosis growth inhibition, HTS (AID 449762);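 also: bacterial growth assessed after seven days of incubation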
# RUN PARAMETERS: measured here: IC90 growth inhibition
Inconclusive results are not listed.
EXPERIMENTAL READOUT: log10 of IC90 (log10 of the value in µM)
Field: value | Transform: log10 | Quantity: IC90 | Unit: µM

CCc1ccc2[nH]c(=O)c(CN(CCCN3CCOCC3)C(=O)Nc3cccc(Cl)c3)cc2c1 ... 1.48
O=C(CN1CCCCC1)Nc1nnc(-c2ccc([N+](=O)[O-])cc2)s1 ... 1.80
CCOc1cc(/C=C2\COc3ccccc3C2=O)cc(Br)c1OCC(=O)N(C)C ... 0.82
CCCc1cc(-c2nc(-c3ccc(Br)cc3)cs2)ccn1 ... 1.31
COc1ccc(-c2nc(NC(=O)Cn3ccc(C(F)(F)F)n3)sc2C)cc1 ... 0.47
COC(=O)N/N=C/c1c[n+]([O-])c2ccccc2[n+]1[O-] ... 1.50
CCOC(=O)COc1ccc(C2CC(C)=NN2c2ccccc2)cc1 (configuration not stated) ... 1.25
S=c1nc2ccccc2c2nc(-c3ccccc3)[nH]n12 ... 1.16

Please fill in: log10 of IC90 reported for CC(C)OC(=O)CSc1nc2ccccc2s1 = 1.53

Per the record, Cc1cc(-c2nnc3n2CCCCC3)c(C)n1-c1ccccc1 has log10 of IC90 of 1.71

molecule O=C(CSc1nnnn1-c1ccc2c(c1)OCCO2)OC1CCCCC1 , log10 of IC90 observed: 1.34

log10 of IC90 in this record for CNc1ncnc2c1ncn2[C@@H]1O[C@H](CO)[C@@H](O)[C@H]1O : 0.76

# molecule CCCCNC(=S)Nc1ccc2cn[nH]c2c1 ; its log10 of IC90 = 1.33

Measured log10 of IC90 of Cc1ccc(/C=C2\SC(N3CCCC3)=NC2=O)cc1 : 0.23

The value of log10 of IC90 measured for the molecule COc1ccc(-c2cc(C3CCN(Cc4cccc(C(F)(F)F)c4)CC3)[nH]n2)cc1 turned out to be 1.20
